log10(koff) overview
Target: T1, human guanylyl cyclase C (GCC), as used in the Octet binding assay (human, UniProt P25092 24-430, limits assumed)
T1 construct: also called STAR; GUC2C
T1 sequence (P25092 24-430 limits assumed): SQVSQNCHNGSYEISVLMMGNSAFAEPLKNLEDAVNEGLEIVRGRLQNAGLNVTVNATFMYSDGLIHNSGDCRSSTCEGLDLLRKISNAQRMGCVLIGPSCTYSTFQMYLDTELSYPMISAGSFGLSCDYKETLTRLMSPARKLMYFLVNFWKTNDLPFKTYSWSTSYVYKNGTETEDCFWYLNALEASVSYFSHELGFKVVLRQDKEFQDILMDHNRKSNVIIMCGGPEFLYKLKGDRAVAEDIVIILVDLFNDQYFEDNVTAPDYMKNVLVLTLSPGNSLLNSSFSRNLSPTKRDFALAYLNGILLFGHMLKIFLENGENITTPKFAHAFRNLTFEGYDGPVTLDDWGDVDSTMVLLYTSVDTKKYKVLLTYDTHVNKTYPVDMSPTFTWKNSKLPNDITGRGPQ
Assay: Octet BLI, 1:1 model
parameterMeasured: log10(koff) (log10 of the value in s⁻¹)

INSERT INTO measurements (binder, measurednumber) VALUES
  ('V36 anti-GCC single domain VH antibody (VHH, Human heavy chain variable single domain antibody (VH only), tested as recombinant purified VH; No tags are stated) VHH: EVQLVESGGGLAQPGGSLRLSCAASGFTFSRYWMTWVRQAPGGRLEWVAKIKYDGSEKYYADSVKGRFTISRDNAKNSLYLQMDSLRAEDTAVYYCTRDYNKDYWGQGTLVTVSS', -2.46),
  ('V51 anti-GCC single domain VH antibody (VHH, Human heavy chain variable single domain antibody (VH only), tested as recombinant purified VH; No tags are stated) VHH: EVQLVESGGGLVQPGGSLRLSCAASGFTFSRYWMTWVRQAPGKGLEWVAKIRHDGGEKYYADSVKGRFTISRDNAKNSLYLQMNSLRAEDTAVYYCTRDYNKDYWGQGTLVTVSS', -2.73),
  ('V48 anti-GCC single domain VH antibody (VHH, Human heavy chain variable single domain antibody (VH only), tested as recombinant purified VH; No tags are stated) VHH: EVQLVESGGGLVQPGGSLRLTCAASGFTFSRYWMTWVRQAPGKGLEWVAKIRHDGGEKYYPDSVKGRFTVSRDNAKNSLYLQMDNLRAEDTAMYYCTRDYNKDLWGQGTLVTVSS', -3.47),
  ('V1 anti-GCC single domain VH antibody (VHH, Human heavy chain variable single domain antibody (VH only, no light chain), tested as recombinant purified VH; also called V1 VH) VHH: QVQLQESGPGLVKPSETLSLTCTVSGASISHYYWSWFRQPAGKGLEWIGRIYPSGSTSYNPSLKSRVAMSVDTPKNQFSLNLSSVTAADTAVYYCARDRSTGWSEWNSDLWGRGTLVTVSS', -3.68),
  ('V5 anti-GCC single domain VH antibody (VHH, Human heavy chain variable single domain antibody (VH only), tested as recombinant purified VH; No tags are stated) VHH: QVQLVESGGGLVQPGGSLRLSCTASGFTFSRYWMSWVRQAPGKGLEWVAKIRHDGGEKYYVDSVKGRFTISRDNAKNSLYLQMNSLRAEDTAVYYCATDYTRDVWGQGTAVTVSS', -3.14);
